The values you see were collected from patent US20010051612A1.

- MEASUREMENT_TARGET: A2A adenosine receptor (Sus scrofa)
- Construct: from tissue; host or cells: pig striatum membranes
- Sequence (K9IW67 1-409): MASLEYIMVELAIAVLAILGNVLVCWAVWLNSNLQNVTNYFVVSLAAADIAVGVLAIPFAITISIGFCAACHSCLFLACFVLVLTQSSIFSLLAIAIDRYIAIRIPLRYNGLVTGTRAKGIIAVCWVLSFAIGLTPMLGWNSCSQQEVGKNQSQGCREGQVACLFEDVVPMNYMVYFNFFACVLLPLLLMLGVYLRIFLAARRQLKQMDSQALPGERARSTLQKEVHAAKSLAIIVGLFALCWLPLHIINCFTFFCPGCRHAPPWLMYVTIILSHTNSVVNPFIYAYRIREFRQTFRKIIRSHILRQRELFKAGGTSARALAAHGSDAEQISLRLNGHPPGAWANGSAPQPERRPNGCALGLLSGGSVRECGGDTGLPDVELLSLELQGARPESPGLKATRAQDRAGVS
- TEST_METHOD_NOTES: Affinity for the A2A receptor in a pig striatum membrane prep (displacement of tritiated ZM 241385)
- Format: binding
- STUDY_CONDITIONS: compounds 1a-5a; pig striatal membranes, [3H]ZM 241385 2 nM, 23° C. 2h; Ki from IC50
ENDPOINT_NAME: Ki (nM)

INSERT INTO results (item_smiles, recorded_value) VALUES
  ('CCNC(=O)[C@H]1O[C@@H](n2cnc3c(N)nc(Sc4ccccc4)nc32)[C@H](O)[C@@H]1O', 6120);

[a] CCCCCSc1nc(N)c2ncn([C@@H]3O[C@H](C(=O)NCC)[C@@H](O)[C@H]3O)c2n1
[b] CCNC(=O)[C@H]1O[C@@H](n2cnc3c(N)nc(SCCCc4ccccc4)nc32)[C@H](O)[C@@H]1O
[c] CCNC(=O)[C@H]1O[C@@H](n2cnc3c(N)nc(SCCc4ccccc4)nc32)[C@H](O)[C@@H]1O
Arrange items by their Ki values in increasing order. Response format: the labels, sorted as the prompt asks.
c, a, b
(c: 85 nM, a: 4310 nM, b: 6280 nM)

---

- MEASUREMENT_TARGET: A1 (Homo sapiens)
- Sequence (P30542 1-326): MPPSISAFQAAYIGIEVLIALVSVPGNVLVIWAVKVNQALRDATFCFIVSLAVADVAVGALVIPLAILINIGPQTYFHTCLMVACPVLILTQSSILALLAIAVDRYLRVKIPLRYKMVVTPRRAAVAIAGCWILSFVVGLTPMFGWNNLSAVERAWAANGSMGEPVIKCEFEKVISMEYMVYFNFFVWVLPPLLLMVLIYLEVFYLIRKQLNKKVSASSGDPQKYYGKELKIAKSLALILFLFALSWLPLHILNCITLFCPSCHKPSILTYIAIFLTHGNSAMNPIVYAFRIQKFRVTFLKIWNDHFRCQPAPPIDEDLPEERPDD
- TEST_METHOD_NOTES: Affinity for the A1 receptor (Ki column, no method described)
- Format: binding
- STUDY_CONDITIONS: compounds 1a-5a table
ENDPOINT_NAME: Ki

For the molecule CCNC(=O)[C@H]1O[C@@H](n2cnc3c(N)nc(SCCc4ccccc4)nc32)[C@H](O)[C@@H]1O , give its reported Ki.
> 10000 nM

---

ENDPOINT_NAME: melting point

The examples below pair each entry with its known result.
INSERT INTO measurements (compound, endpoint_name, recorded_value) VALUES
  ('CCCCCSc1nc(N)c2ncn([C@@H]3O[C@H](CO)[C@@H](O)[C@H]3O)c2n1 [Compound 5]', 'melting point', '177 °C (dec.)'),
  ('CCNC(=O)[C@H]1O[C@@H](n2cnc3c(N)nc(SCCc4ccccc4)nc32)[C@H](O)[C@@H]1O [Compound 3a]', 'melting point', '97 to 99 °C');

Tell us which melting point value is on record for Nc1nc(SC2CCCC2)nc2c1ncn2[C@@H]1O[C@H](CO)[C@@H](O)[C@H]1O [Compound 7]
213 °C (dec.)

---

ENDPOINT_NAME: melting point

INSERT INTO measurements (item_smiles, recorded_value) VALUES
  ('Nc1nc(Sc2ccccc2)nc2c1ncn2[C@@H]1O[C@H](CO)[C@@H](O)[C@H]1O', '137 to 139 °C');

Complete the entry with melting point for CCNC(=O)[C@H]1O[C@@H](n2cnc3c(N)nc(Sc4ccccc4)nc32)[C@H](O)[C@@H]1O
122 to 125 °C

Return reported melting point. Input compound: CCNC(=O)[C@H]1O[C@@H](n2cnc3c(N)nc(SCc4ccccc4)nc32)[C@H](O)[C@@H]1O
245 °C (dec.)

Could you please provide reported melting point for Nc1nc(SCCCCO)nc2c1ncn2[C@@H]1O[C@H](CO)[C@@H](O)[C@H]1O ? Thanks!
88 to 90 °C

Given CCNC(=O)[C@H]1O[C@@H](n2cnc3c(N)nc(SCCCc4ccccc4)nc32)[C@H](O)[C@@H]1O , respond with its melting point.
185 to 188 °C

Identify the reported melting point for the following entry. CCCCCSc1nc(N)c2ncn([C@@H]3O[C@H](C(=O)NCC)[C@@H](O)[C@H]3O)c2n1
> 270 °C (dec.)
